Assay Comment: Chelating power
Metric: Chelating power (ChP), result in words

C=CC(C)(O)CCC=C(C)C (centres unmarked); high ChP
Cc1ccc(C(C)C)cc1; high chelating activity
C=CC(C)(CCC=C(C)C)OC(C)=O (centres unmarked) [linalyl acetate]; high ChP
CC1=CC=C(C(C)C)CC1; high chelating activity

###

Record form. Attribute: LOX inhibitory activity, IC50 of main commercially available compounds. Fill in for each entry.
Measured Target: lipoxygenase (LOX) (linoleate:oxygen oxidoreductase, EC 1.13.11.12) (Glycine max, UniProt P08170)
Sequence (P08170 1-839): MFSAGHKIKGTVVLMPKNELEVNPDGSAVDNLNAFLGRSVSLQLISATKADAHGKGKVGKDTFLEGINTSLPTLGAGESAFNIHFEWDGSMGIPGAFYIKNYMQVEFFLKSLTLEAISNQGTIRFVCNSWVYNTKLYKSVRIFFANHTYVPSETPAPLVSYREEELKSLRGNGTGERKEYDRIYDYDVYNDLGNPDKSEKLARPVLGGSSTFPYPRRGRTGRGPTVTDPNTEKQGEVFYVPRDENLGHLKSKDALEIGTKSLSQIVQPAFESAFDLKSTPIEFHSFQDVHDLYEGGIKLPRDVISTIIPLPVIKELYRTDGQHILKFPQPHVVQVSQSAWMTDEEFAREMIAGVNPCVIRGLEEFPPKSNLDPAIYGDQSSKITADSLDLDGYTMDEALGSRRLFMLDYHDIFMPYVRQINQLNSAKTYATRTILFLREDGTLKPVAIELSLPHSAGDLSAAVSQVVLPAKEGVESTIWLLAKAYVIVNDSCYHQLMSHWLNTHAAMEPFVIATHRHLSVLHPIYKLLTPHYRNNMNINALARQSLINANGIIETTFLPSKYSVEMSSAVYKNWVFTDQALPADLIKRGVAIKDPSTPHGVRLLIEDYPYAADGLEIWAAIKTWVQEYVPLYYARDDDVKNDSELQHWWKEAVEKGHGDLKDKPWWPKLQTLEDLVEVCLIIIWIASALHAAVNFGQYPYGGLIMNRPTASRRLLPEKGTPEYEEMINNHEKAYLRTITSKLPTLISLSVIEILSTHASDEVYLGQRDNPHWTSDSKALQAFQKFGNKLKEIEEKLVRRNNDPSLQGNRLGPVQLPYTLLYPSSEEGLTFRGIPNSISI
Assay Comment: Lipoxygenase
Assay type: biochemical, Glycine max (soybean)
Assay Context: soybean LOX, linoleic acid substrate, 25 °C; mean ± SD

Q. Consider the compound Cc1ccc(C(C)C)cc1 [p-cymene] and give its measured LOX inhibitory activity, IC50 of main commercially available compounds.
A. 79 ± 5 μL (Compound)/L

Q. Now consider Cc1ccc(C(C)C)c(O)c1 [thymol] .
A. 23 ± 2 μL (Compound)/L

Q. Now consider CC12CCC(CC1=O)C2(C)C (stereo not drawn) [camphor] .
A. 422 ± 13 μL (Compound)/L

Q. Now consider C=C(C)[C@H]1CC=C(C)CC1 [limonene] .
A. 58 ± 5 μL (Compound)/L

Q. Now consider C=CC(C)(O)CCC=C(C)C (stereo not drawn) [linalool] .
A. 599 ± 8 μL (Compound)/L

Q. Now consider CC(=O)OC1CC2CCC1(C)C2(C)C (stereo not drawn) [bornyl acetate] .
A. 75 ± 3 μL (Compound)/L

###

Assay Comment: ABTS radical cation bleaching assay
Assay Context: TEAC units; X = EO or compound
ABTS less than 3 μmol TE/mL X is 1; ABTS greater than or equal to 3 μmol TE/mL X is 0.

Q. Confirm or reject: ABTS of Cc1ccc(C(C)C)cc1O lies strictly below 3 μmol TE/mL X
A. 0

Q. Now consider C=C(C)[C@H]1CC=C(C)CC1 .
A. 0

Q. Now consider CC(C)C12CCC(C)(O)C1C2 (stereo not shown) [Sabinene hydrate] .
A. 0

Q. Now consider Cc1ccc(C(C)C)c(O)c1 .
A. 0

Q. Now consider C=CC(C)(CCC=C(C)C)OC(C)=O (stereo not shown) [linalyl acetate] .
A. 1

Q. Now consider C=C1C2CCC(C2)C1(C)C (stereo not shown) .
A. 1
